# target_desc: HLA-A*02:01
# method_description: IEDB peptide-MHC binding, purified MHC/direct/fluorescence; filed as Kd, often an IC50 or EC50 that approximates it; bounds were set here for any values at or beyond the usual limits of such assays
# setup_conditions: source organism: Brucella abortus
pKd: −log10 of the molar value.
measure: pKd

## Input Look up pKd for this sequence: `GLAEKPNDY`
## Output ≤ 4.70

---

# target_desc: HLA-B*51:01
# method_description: IEDB peptide-MHC binding, purified MHC/direct/fluorescence; filed as Kd, often an IC50 or EC50 that approximates it; bounds were set here for any values at or beyond the usual limits of such assays
# setup_conditions: source organism: Vibrio parahaemolyticus
pKd: −log10 of the molar value.
measure: pKd

## Input Need pKd of `KVAQAAAAM` , thanks.
## Output ≤ 4.70

---

# target_desc: HLA-A*68:02
# method_description: IEDB peptide-MHC binding, purified MHC/direct/fluorescence; filed as Kd, often an IC50 or EC50 that approximates it; bounds were set here for any values at or beyond the usual limits of such assays
# setup_conditions: source organism: Francisella tularensis subsp. holarctica LVS
measure: Kd

## Input Lab note: need Kd with HLA-A*68:02 for entry `FQVNRFTGY` , please look it up.
## Output ≥ 20 µM

---

# target_desc: HLA-B*40:13
# method_description: IEDB peptide-MHC binding, purified MHC/competitive/fluorescence; filed as Kd, often an IC50 or EC50 that approximates it; bounds were set here for any values at or beyond the usual limits of such assays
# setup_conditions: source organism: Salmonella enterica subsp. enterica serovar Typhi
measure: pKd
Entry type: numeric. Quantity: pKd, the -log10 of concentration in molar units.

## Input pKd for `MTMLTRWKI` ?
## Output 6.44

---

# target_desc: HLA-B*27:03
# method_description: IEDB peptide-MHC binding, purified MHC/competitive/fluorescence; filed as Kd, often an IC50 or EC50 that approximates it; bounds were set here for any values at or beyond the usual limits of such assays
# setup_conditions: source organism: Orthohantavirus tulaense
pKd: −log10 of the molar value.
measure: pKd

## Input Reported pKd for `FMSRKLHRY` : what is it?
## Output ≤ 4.70

---

# target_desc: HLA-B*35:01
# method_description: IEDB peptide-MHC binding, purified MHC/competitive/radioactivity; filed as Kd, often an IC50 or EC50 that approximates it; bounds were set here for any values at or beyond the usual limits of such assays
# setup_conditions: source organism: Dengue virus 4 Philippines/H241/1956
measure: pKd
Reminder that pKd means the negative base-10 logarithm of the concentration expressed in mol/L.

## Input I'd like to know its pKd. The sequence in question is `FIRSTMPLVM`
## Output 5.53

---

# target_desc: HLA-B*51:01
# method_description: IEDB peptide-MHC binding, purified MHC/competitive/fluorescence; filed as Kd, often an IC50 or EC50 that approximates it; bounds were set here for any values at or beyond the usual limits of such assays
# setup_conditions: source organism: Giardia lamblia ATCC 50803
measure: Kd

## Input Please tell me: Kd of `ELLDHLLLF` , system HLA-B*51:01?
## Output ≥ 20 µM

---

# target_desc: HLA-A*01:01
# method_description: IEDB peptide-MHC binding, purified MHC/direct/fluorescence; filed as Kd, often an IC50 or EC50 that approximates it; bounds were set here for any values at or beyond the usual limits of such assays
# setup_conditions: source organism: Influenza A virus (A/tiger/Thailand/CU-T6/04(H5N1))
pKd: −log10 of the molar value.
measure: pKd

## Input Using the record for `TYQWIIRNW` , report its pKd.
## Output ≤ 4.70

---

Kindly supply the reported Kd values for the records listed here.
# target_desc: HLA-A*11:01
# method_description: IEDB peptide-MHC binding, purified MHC/competitive/radioactivity; filed as Kd, often an IC50 or EC50 that approximates it; bounds were set here for any values at or beyond the usual limits of such assays
# setup_conditions: source organism: Vaccinia virus WR
Kindly provide the numeric value in nM only, without the unit symbol.

## Input Bench note: what Kd did `KSDNIINIGY` show?
## Output 142

## Input Using the record for `NILGGVLHTK` , report its Kd.
## Output 36.8

## Input Requested field: Kd. Item: `IILSKIPYLR`
## Output 40.7

## Input Look at this sequence and give its reported Kd. `FSLESDSIK`
## Output 565

## Input Form field: reported Kd of `STQSVLCVK`
## Output 0.756

## Input Recorded Kd of `FSTSAADIKR` , please.
## Output 247

## Input Field request: Kd | item: `SSVQLSNNKY`
## Output 141

## Input Name the recorded Kd for `TLDTMDDMKK` .
## Output 287

## Input Field request: Kd | item: `TSMMVILPDK`
## Output 1.8

---

# target_desc: HLA-A*24:03
# method_description: IEDB peptide-MHC binding, purified MHC/competitive/fluorescence; filed as Kd, often an IC50 or EC50 that approximates it; bounds were set here for any values at or beyond the usual limits of such assays
# setup_conditions: source organism: Ephydatia fluviatilis
pKd: −log10 of the molar value.
measure: pKd

## Input Consider the sequence `TLKPGTMSV` and give its measured pKd.
## Output ≤ 4.70

---

# target_desc: HLA-B*35:01
# method_description: IEDB peptide-MHC binding, purified MHC/direct/fluorescence; filed as Kd, often an IC50 or EC50 that approximates it; bounds were set here for any values at or beyond the usual limits of such assays
# setup_conditions: source organism: Vibrio vulnificus CMCP6
measure: Kd
Note: state the figure and append the unit.

## Input What does the data say about its Kd? Entry: `EMSLADYLY`
## Output 27 nM

---

# target_desc: HLA-A*01:01
# method_description: IEDB peptide-MHC binding, purified MHC/direct/fluorescence; filed as Kd, often an IC50 or EC50 that approximates it; bounds were set here for any values at or beyond the usual limits of such assays
# setup_conditions: source organism: Mycobacterium tuberculosis variant bovis
measure: Kd (nM)
# unit: nM | format: bare number

## Input Query: Kd; subject: `MLAPSTLGY`
## Output 52

---

# target_desc: HLA-A*01:01
# method_description: IEDB peptide-MHC binding, purified MHC/direct/fluorescence; filed as Kd, often an IC50 or EC50 that approximates it; bounds were set here for any values at or beyond the usual limits of such assays
# setup_conditions: source organism: Giardia lamblia ATCC 50803
pKd: −log10 of the molar value.
Provide the recorded pKd for the entries that follow.

## Input I would be grateful if you could share the reported pKd for `GMLSSLHTL` .
## Output ≤ 4.70

## Input Tell me the measured pKd of `ITFHNQRDF` , please.
## Output ≤ 4.70

---

# target_desc: HLA-A*24:03
# method_description: IEDB peptide-MHC binding, purified MHC/competitive/fluorescence; filed as Kd, often an IC50 or EC50 that approximates it; bounds were set here for any values at or beyond the usual limits of such assays
# setup_conditions: source organism: Entamoeba dispar SAW760
measure: Kd

## Input Param item = `KGFFRVFKK` ; retrieve measured Kd.
## Output ≥ 20 µM

---

Assignment: determine reported pKd for the given sequences.
# target_desc: HLA-A*31:01
# method_description: IEDB peptide-MHC binding, purified MHC/direct/fluorescence; filed as Kd, often an IC50 or EC50 that approximates it; bounds were set here for any values at or beyond the usual limits of such assays
# setup_conditions: source organism: West Nile virus
pKd: −log10 of the molar value.

## Input Given `GRGPIRFVL` , state its recorded pKd.
## Output ≤ 4.70

## Input Any idea what pKd was measured for `GMSWITQGL` ?
## Output ≤ 4.70

---

# target_desc: HLA-B*57:01
# method_description: IEDB peptide-MHC binding, purified MHC/direct/fluorescence; filed as Kd, often an IC50 or EC50 that approximates it; bounds were set here for any values at or beyond the usual limits of such assays
# setup_conditions: source organism: Vibrio cholerae
pKd: −log10 of the molar value.
measure: pKd

## Input # query: pKd of entry `REVFDYLLP`
## Output ≤ 4.70

---

# target_desc: HLA-A*24:03
# method_description: IEDB peptide-MHC binding, purified MHC/competitive/fluorescence; filed as Kd, often an IC50 or EC50 that approximates it; bounds were set here for any values at or beyond the usual limits of such assays
# setup_conditions: source organism: Escherichia coli str. K-12 substr. MG1655
measure: pKd
Please keep in mind that pKd is minus log10 of the molar concentration; only the number is needed.

## Input Item `AWQRTLKWF` has what recorded pKd?
## Output 6.96

---

# target_desc: HLA-B*08:01
# method_description: IEDB peptide-MHC binding, purified MHC/direct/fluorescence; filed as Kd, often an IC50 or EC50 that approximates it; bounds were set here for any values at or beyond the usual limits of such assays
# setup_conditions: source organism: Giardia intestinalis
pKd: −log10 of the molar value.
measure: pKd

## Input Any idea what pKd came out for `GPRRAAWRI` on HLA-B*08:01?
## Output ≤ 4.70
